Tested on: 242566-281-R-J2-PDC complex spheroid viability;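 further: spheroids exposed to compound for 7 days before readout; 100% = DMSO vehicle control wells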
assayProcedure: Anticancer human tumor 242566-281-R-J2-PDC patient-derived pancreatic carcinoma cell line growth inhibition [RAS]; active means viability on the fitted dose curve at most 10% of control; inactive means the rest
studyConditions: second compound 10 µM; first compound 10 µM
Respond using exactly one of the listed classes: yes (1) (active), no (0) (inactive)

See these solved cases before continuing.
CC(Nc1ccc2c(c1)OCCn1cc(N3C(=O)OCC3C(F)F)nc1-2)C(N)=O (stereo not drawn) + C#Cc1c(F)ccc2cc(O)cc(-c3ncc4c(N5CC6CCC(C5)N6)nc(OCC56CCCN5CC(F)C6)nc4c3F)c12 | yes (1)
CC1(O)CCCC1n1c(=O)c(C(F)F)cc2cnc(NC3CCN(S(C)(=O)=O)CC3)nc21 (stereo not drawn) + C#Cc1c(F)ccc2cc(O)cc(-c3ncc4c(N5CC6CCC(C5)N6)nc(OCC56CCCN5CC(F)C6)nc4c3F)c12 | no (0)

Now take the following compound into account.
Q. Recorded call for CC(C)NCC(C(=O)N1CCN(c2ncnc3c2C(C)CC3O)CC1)c1ccc(Cl)cc1 (stereo not drawn) + C#Cc1c(F)ccc2cc(O)cc(-c3ncc4c(N5CC6CCC(C5)N6)nc(OCC56CCCN5CC(F)C6)nc4c3F)c12 ?
A. no (0)
